System: MDA-MB-231 cells
protocol summary: MTT cell viability assay
Type: cell-based
test parameters: Homo sapiens; MDA-MB-231, 24 h exposure, error from three repeats in brackets; read-out: IC50 (24 h)
Description: Herein, we carried out further in vitro studies at the University of Barcelona for the full library of perenosins. Single dose screening for cell viability using the methylthiazoletetrazolium (MTT) colorimetric assay over five different cell lines (cancer cells MCF-7, MDA-MB-231, A549 and SW620, and non-cancerous human cells MCF-10A) was conducted. […] Cell viability was evaluated using the methylthiazoletetrazolium (MTT) colorimetric assay. […]
result type: IC50 (µM)
Please state the figure in µM; there is no need to write the unit.

Given the entry Cc1cc(C)c(/C=N/c2cc(C(F)(F)F)cc3cc[nH]c23)[nH]1 , what IC50 was observed with MDA-MB-231 cells? 32.2

Given the entry COc1cc(/N=C/c2[nH]c(C)cc2C)c2[nH]ccc2c1 , what IC50 was observed with MDA-MB-231 cells? 38.4

Given the entry Cc1cc(C)c(/C=N/c2cccc3cc[nH]c23)[nH]1 , what IC50 was observed with MDA-MB-231 cells? 38.3

Given the entry Cc1cc(/N=C/c2[nH]c(C)cc2C)c2[nH]ccc2c1 , what IC50 was observed with MDA-MB-231 cells? 34.4

Given the entry CCCCCc1c(C)[nH]c(/C=N/c2cc(C)cc3cc[nH]c23)c1C , what IC50 was observed with MDA-MB-231 cells? 20.3

Given the entry CCCCCc1cc(/N=C/c2[nH]c3ccccc3c2C)c2[nH]ccc2c1 , what IC50 was observed with MDA-MB-231 cells? 73.8

Given the entry CCCCCc1cc(/N=C/c2[nH]c(C)cc2C)c2[nH]ccc2c1 , what IC50 was observed with MDA-MB-231 cells? 25.2
